- Assay info: Tanguay_ZF_120hpf_ActivityScore_legacy: (Legacy) Oregon State University Tanguay Lab 120 Hour Post-fertilization zebrafish Assay Score for Activity (AID 2283742);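 for AC50: dechorionated Tropical 5D wild-type zebrafish embryos held singly per well; static exposure from 6 hpf until 120 hpf at 28 °C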
- Protocol: Tanguay_ZF_120hpf_legacy is a whole embryo, multiplexed endpoint assay using zebrafish larvae exposed for 120 hours post fertilization on a 96-well plate.Tanguay_ZF_120hpf_ActivityScore_legacy is one of one assay component(s) measured or calculated from the Tanguay_ZF_120hpf_legacy assay. […] This assay endpoint, Tanguay_ZF_120hpf_ActivityScore_legacy, was analyzed in the positive analysis fitting direction relative to DMSO as the negative control and baseline of activity. […]
The source made the active and inactive calls. Rule for the calls: active = hit-call score of the fitted dose curve at least 0.9, where 1 is the maximum; inconclusive = response in the unintended direction; inactive = score below 0.9.
Measure: AC50

For orientation, consider the following solved cases.
Molecule: O=C(OCCCCCCOC(=O)c1ccccc1)c1ccccc1
AC50: inactive

Molecule: O=C(O)Cc1cc(I)c(Oc2ccc(O)c(I)c2)c(I)c1
AC50: 31.3 µM (active)

Molecule: O=C(O)Cn1c(=O)n(Cc2ccc(Br)cc2F)c(=O)c2ccc(Cl)cc21
AC50: inactive

Molecule: Clc1cc(Cl)c2c(c1)N=C1CCCCCN1C2
AC50: 18 µM (active)

Molecule: CCCCCCCCCCCC[N+](C)(C)C
AC50: inactive

Molecule: O=c1c(-c2ccc(O)cc2)coc2cc(O)cc(O)c12
AC50: 20 µM (active)

Molecule: CN1C(=O)N(c2ccccc2Br)Cc2cnc(Nc3ccc4c(c3)OCC(CO)O4)nc21 (stereo not drawn)
AC50: 6.73 µM (active)

Molecule: Cc1cccc2ccccc12
AC50: inactive

Molecule: CC(C)(C)c1cc(/C=C2\SC(N)=NC2=O)cc(C(C)(C)C)c1O
AC50: 47.2 µM (active)

Molecule: Cc1cc(F)ccc1-c1cc(N2CC[C@@H](O)[C@H]2CO)ncc1N(C)C(=O)C(C)(C)c1cc(C(F)(F)F)cc(C(F)(F)F)c1
AC50: inactive

Form field: reported AC50 of CCN(Cc1cccnc1)C(=O)c1cccc(Cl)c1[C@]1(C)C(=O)N(Cc2ccc(OC)cc2OC)c2ccc(Cl)cc21
32.5 µM (active)

Form field: reported AC50 of CC(C)(O)c1ccc(CNC(=O)c2cccnc2Oc2ccc3nonc3c2)cc1
inactive

Form field: reported AC50 of c1ccc(C[n+]2cccc3ccccc32)cc1
inactive

###

- Tested system: Cellular tumor antigen p53 (Homo sapiens)
- Assay info: ATG_p53_CIS: Attagene CIS-FACTORIAL HepG2 Assay for human p53 Transcription Factor (AID 2282994)
- Protocol conditions: HepG2 p53 cis-element reporter, Attagene mRNA; actives raise or lower the signal
Calls of active or inactive are those of the source. How the source made its calls: active means hit-call score of the fitted dose curve at least 0.9, where 1 is the maximum; inactive means score below 0.9.
Returns: one label drawn from active, inactive

As a guide, the following entries are already answered.
Molecule: CC[C@H](NC(=O)c1cc(F)ccc1NS(=O)(=O)c1cccc2cccnc12)c1ccccc1
Cat: inactive
//
Molecule: CN(C[C@@H](CC[N+]12CCC(C3CCCCC3)(CC1)CC2)c1ccc(Cl)c(Cl)c1)C(=O)c1cc(C(F)(F)F)cc(C(F)(F)F)c1
Cat: inactive
//
Molecule: O=c1c(-c2ccc(O)cc2)coc2cc(O)cc(O)c12
Cat: inactive
//
Molecule: c1ccc2ccccc2c1
Cat: inactive

Record request — test call for NC(=O)c1nc(-c2cccc(-c3cc(F)ccc3OCC(F)(F)C(F)(F)F)c2)n[nH]1
inactive

Record request — test call for Clc1ccccc1C(c1ccccc1)(c1ccccc1)n1ccnc1
inactive

Record request — test call for O=C(O)c1ccccc1C(=O)OCc1ccccc1
inactive

Record request — test call for O=C=NCCCCCCN=C=O
inactive

Record request — test call for Cc1oc2c(NC(=O)c3c(Cl)cccc3Cl)cccc2c1C(C)(C)O
active

Record request — test call for CC(=O)N1CCN(c2ccc(OC[C@H]3CO[C@](Cn4ccnc4)(c4ccc(Cl)cc4Cl)O3)cc2)CC1
inactive

Record request — test call for O=CCCCC=O
inactive

Record request — test call for CCCOC(=O)c1cc(O)c(O)c(O)c1
inactive

Recorded values, source PubChem BioAssay (EPA / NIEHS).
